Please go through the items and note down their Trimeric HA Binding RLU.
Target: recombinant soluble homotrimeric HA of A/northern shoveler/California/HKWF115/2007 (H6N1) (Influenza A virus A/northern shoveler/California/HKWF115/2007 (H6N1))
Test: HA microarray, BCC supernatant
Details: remark: other sources report otherwise
Numbers only, in RLU.

Binder	Measured Result
TCN-553 (5261_C18) (antibody, V domains shown) VH: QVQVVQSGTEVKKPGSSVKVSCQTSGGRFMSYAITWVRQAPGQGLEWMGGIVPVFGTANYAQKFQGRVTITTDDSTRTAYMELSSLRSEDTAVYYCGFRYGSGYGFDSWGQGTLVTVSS VL: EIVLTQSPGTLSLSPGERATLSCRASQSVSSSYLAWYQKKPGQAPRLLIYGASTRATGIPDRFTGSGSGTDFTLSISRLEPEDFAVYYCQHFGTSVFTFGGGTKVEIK	21700

We next turn to a different binder, shown below.
Data request: Could you share which Trimeric HA Binding RLU value was measured for TCN-557 (5081_A04) (antibody, V domains shown) VH: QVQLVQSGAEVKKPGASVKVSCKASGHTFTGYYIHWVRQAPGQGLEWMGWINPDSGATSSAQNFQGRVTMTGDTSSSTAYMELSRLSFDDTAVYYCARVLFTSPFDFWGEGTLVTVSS VL: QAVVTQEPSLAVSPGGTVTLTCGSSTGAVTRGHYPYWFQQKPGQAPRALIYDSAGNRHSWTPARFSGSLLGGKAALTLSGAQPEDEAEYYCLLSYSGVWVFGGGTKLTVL ?
Data returned: 24400
